All figures here come from paper PMC9865188.

Assay: Pharmacokinetic study in Sprague Dawley rats (oral gavage)
Format: in vivo
Settings: male, Sprague-Dawley, rat, plasma, po, 2 mg/kg, Zosuquidar Cmax, group D: zosuquidar 2.0 mg/kg + etoposide 20 mg/kg + 5.0% v/v polysorbate 20 oral
PROPERTY_LABEL: Cmax (ng/mL)
Write the answer as a number in ng/mL, unit excluded.

Q: Read the entry O[C@@H](COc1cccc2ncccc12)CN1CCN([C@@H]2c3ccccc3[C@@H]3[C@H](c4ccccc42)C3(F)F)CC1 and write its reported Cmax.
Result: 4.8

---

Experiment: Pharmacokinetic study in Sprague Dawley rats (oral gavage)
Format: in vivo
Details: male, Sprague-Dawley, rat, plasma, po, 6.3 mg/kg, Zosuquidar Cmax, group E: zosuquidar 6.3 mg/kg + etoposide 20 mg/kg + 5.0% v/v polysorbate 20 oral
PROPERTY_LABEL: Cmax (ng/mL)
Response body: numeric value in ng/mL, unit text excluded.

Q: Give the measured Cmax for O[C@@H](COc1cccc2ncccc12)CN1CCN([C@@H]2c3ccccc3[C@@H]3[C@H](c4ccccc42)C3(F)F)CC1 [zosuquidar]
Result: 13.2

---

Experiment: Pharmacokinetic study in Sprague Dawley rats (oral gavage)
Assay type: in vivo
Conditions: male, Sprague-Dawley, rat, plasma, po, 6.3 mg/kg, Zosuquidar t½, group F: zosuquidar 6.3 mg/kg + etoposide 20 mg/kg + 10% v/v polysorbate 20 oral
PROPERTY_LABEL: half-life (h)
Form entry: value (h) — number only.

Q: Determine from records and report half-life for O[C@@H](COc1cccc2ncccc12)CN1CCN([C@@H]2c3ccccc3[C@@H]3[C@H](c4ccccc42)C3(F)F)CC1
Result: 2.45

---

Experiment: Pharmacokinetic study in Sprague Dawley rats (oral gavage)
Assay type: in vivo
Conditions: male, Sprague-Dawley, rat, plasma, po, 20 mg/kg, Etoposide bioavailability, group A: etoposide 20 mg/kg + 1.0% v/v polysorbate 20 oral
PROPERTY_LABEL: bioavailability (%)
Only the number, expressed in %, is required.

Q: Name the recorded bioavailability of the compound listed here: COc1cc([C@@H]2c3cc4c(cc3[C@@H](O[C@@H]3O[C@@H]5CO[C@@H](C)O[C@H]5[C@H](O)[C@H]3O)[C@H]3COC(=O)[C@H]23)OCO4)cc(OC)c1O [etoposide]
Result: 5.35

---

Test: Pharmacokinetic study in Sprague Dawley rats (oral gavage)
Format: in vivo
Details: male, Sprague-Dawley, rat, plasma, po, 20 mg/kg, Etoposide bioavailability, group F: etoposide 20 mg/kg + zosuquidar 6.3 mg/kg + 10% v/v polysorbate 20 oral
PROPERTY_LABEL: bioavailability (%)
Provide only the numeric value, understood in %.

Q: // Input: COc1cc([C@@H]2c3cc4c(cc3[C@@H](O[C@@H]3O[C@@H]5CO[C@@H](C)O[C@H]5[C@H](O)[C@H]3O)[C@H]3COC(=O)[C@H]23)OCO4)cc(OC)c1O [etoposide] . Output its bioavailability only.
Result: 13.4

---

Test: Pharmacokinetic study in Sprague Dawley rats (oral gavage)
Assay type: in vivo
Conditions: male, Sprague-Dawley, rat, plasma, po, 6.3 mg/kg, Zosuquidar AUC0–6h, group F: zosuquidar 6.3 mg/kg + etoposide 20 mg/kg + 10% v/v polysorbate 20 oral
PROPERTY_LABEL: AUC(0-t) (ng·h/mL)
Reply numerically in ng·h/mL, unit not repeated.

Q: Using the record for O[C@@H](COc1cccc2ncccc12)CN1CCN([C@@H]2c3ccccc3[C@@H]3[C@H](c4ccccc42)C3(F)F)CC1 , state its measured AUC(0-t).
Result: 56.8
